target.under.test: T1, human Nectin-4 extracellular antigen hNectin-4-His (human, UniProt Q96NY8 32-349)
T1 construct: C-terminal 8xHis tag included
T1 sequence: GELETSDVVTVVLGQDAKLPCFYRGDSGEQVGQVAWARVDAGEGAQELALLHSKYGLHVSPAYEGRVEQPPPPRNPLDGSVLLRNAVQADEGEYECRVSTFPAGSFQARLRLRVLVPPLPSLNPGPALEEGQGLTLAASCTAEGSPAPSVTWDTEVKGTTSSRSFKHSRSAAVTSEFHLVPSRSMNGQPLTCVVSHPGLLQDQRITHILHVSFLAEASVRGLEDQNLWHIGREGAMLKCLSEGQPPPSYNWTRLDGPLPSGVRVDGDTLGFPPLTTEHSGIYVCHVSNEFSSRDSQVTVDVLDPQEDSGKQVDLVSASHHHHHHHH
procedure.text: SPR, antibody on Protein A chip, 1:1 fit
reported.endpoint: log10 koff (log10 of the value in s⁻¹)
// do not treat as linear: log10 of koff, unit s⁻¹

Please state log10 koff for every binder in the list that follows.
1. antibody 10F4-1H6 (antibody, human IgG1, kappa, V domains shown) VH: EVQLVESGGGLVQPGGSLRLSCAASGFNFYDYDMSWVRQAPGKGLEWVSGIKTHSGGNGYADSVKGRFTISRDNSKNTLYLQMNSLRAEDTAVYYCAREYSDVVDYVSVRTPLDYWGQGTLVTVSS VL: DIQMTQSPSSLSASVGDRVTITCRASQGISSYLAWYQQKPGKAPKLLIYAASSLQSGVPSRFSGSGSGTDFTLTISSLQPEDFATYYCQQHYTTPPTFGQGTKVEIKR
2. antibody 1G8-2C6 (antibody, human IgG1, kappa, V domains shown) VH: EVQLVESGGGLVQPGGSLRLSCAASGDNFSSYAMSWVRQAPGKGLEWVSRIYGSDSTPDYADSVKGRFTISRDNSKNTLYLQMNSLRAEDTAVYYCARQTEDRSYGYDLDYWGQGTLVTVSS VL: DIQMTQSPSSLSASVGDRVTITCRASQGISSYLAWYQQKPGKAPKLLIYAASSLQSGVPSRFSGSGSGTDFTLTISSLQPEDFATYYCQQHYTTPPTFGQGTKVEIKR

1. -3.82
2. -2.86

Would you be so kind as to report log10 koff for each listed record?
1. antibody 10F4-1A1 (antibody, human IgG1, kappa, V domains shown) VH: EVQLVESGGGLVQPGGSLRLSCAASGFSFDNYDMSWVRQAPGKGLEWVSSIKPGSAYKFYADSVKGRFTISRDNSKNTLYLQMNSLRAEDTAVYYCAREYSDVVDYVSVRTPLDYWGQGTLVTVSS VL: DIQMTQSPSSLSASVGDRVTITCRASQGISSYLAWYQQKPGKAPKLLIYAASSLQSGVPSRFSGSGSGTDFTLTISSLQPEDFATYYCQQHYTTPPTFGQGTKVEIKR
2. antibody 10F4-1 (antibody, human IgG1, kappa, V domains shown) VH: EVQLVESGGGLVQPGGSLRLSCAASGDSFTNYWMSWVRQAPGKGLEWVSGISQGGSYAYYADSVKGRFTISRDNSKNTLYLQMNSLRAEDTAVYYCAREYSDVVDYVSVRTPLDYWGQGTLVTVSS VL: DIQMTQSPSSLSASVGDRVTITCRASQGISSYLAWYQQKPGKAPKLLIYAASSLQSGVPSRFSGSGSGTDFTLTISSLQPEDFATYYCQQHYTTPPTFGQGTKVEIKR
3. antibody 10F4-3 (antibody, human IgG1, kappa, V domains shown) VH: EVQLVESGGGLVQPGGSLRLSCAASGFSFGDFAMSWVRQAPGKGLEWVSVIDGHTAYNSYADSVKGRFTISRDNSKNTLYLQMNSLRAEDTAVYYCAREYSDVVDYVSVRTPLDYWGQGTLVTVSS VL: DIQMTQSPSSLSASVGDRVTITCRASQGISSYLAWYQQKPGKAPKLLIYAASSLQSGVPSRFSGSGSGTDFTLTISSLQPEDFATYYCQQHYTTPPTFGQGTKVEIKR
4. antibody 1F3-2B1 (antibody, human IgG1, kappa, V domains shown) VH: EVQLVESGGGLVQPGGSLRLSCAASGYNFDNYAMSWVRQAPGKGLEWVSGIKPDSATTYYADSVKGRFTISRDNSKNTLYLQMNSLRAEDTAVYYCARAELLAFDVYTASDYWGQGTLVTVSS VL: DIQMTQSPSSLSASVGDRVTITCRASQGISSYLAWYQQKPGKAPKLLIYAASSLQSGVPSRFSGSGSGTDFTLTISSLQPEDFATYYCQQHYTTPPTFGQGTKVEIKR
5. antibody 1F3-2E8 (antibody, human IgG1, kappa, V domains shown) VH: EVQLVESGGGLVQPGGSLRLSCAASGYSFSDYGMSWVRQAPGKGLEWVSWISPSKGSASYADSVKGRFTISRDNSKNTLYLQMNSLRAEDTAVYYCARAELLAFDVYTASDYWGQGTLVTVSS VL: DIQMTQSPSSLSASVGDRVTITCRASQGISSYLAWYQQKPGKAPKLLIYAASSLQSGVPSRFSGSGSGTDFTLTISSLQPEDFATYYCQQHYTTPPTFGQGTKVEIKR
6. antibody 10F4-1H11 (antibody, human IgG1, kappa, V domains shown) VH: EVQLVESGGGLVQPGGSLRLSCAASGYTFTGFWMSWVRQAPGKGLEWVSSISPDSGTKHYADSVKGRFTISRDNSKNTLYLQMNSLRAEDTAVYYCAREYSDVVDYVSVRTPLDYWGQGTLVTVSS VL: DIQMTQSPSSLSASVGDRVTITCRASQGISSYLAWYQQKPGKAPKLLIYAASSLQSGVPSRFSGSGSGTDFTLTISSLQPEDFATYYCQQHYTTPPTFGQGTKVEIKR
7. antibody 1F3-2F3 (antibody, human IgG1, kappa, V domains shown) VH: EVQLVESGGGLVQPGGSLRLSCAASGFNFSDYGMSWVRQAPGKGLEWVSRIDWDGGNTRYADSVKGRFTISRDNSKNTLYLQMNSLRAEDTAVYYCARAELLAFDVYTASDYWGQGTLVTVSS VL: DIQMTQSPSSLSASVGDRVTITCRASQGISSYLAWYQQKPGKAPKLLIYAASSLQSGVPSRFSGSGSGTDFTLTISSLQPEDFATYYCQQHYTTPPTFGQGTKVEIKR
8. antibody 1F3-1B1 (antibody, human IgG1, kappa, V domains shown) VH: EVQLVESGGGLVQPGGSLRLSCAASGFTFGTYGMSWVRQAPGKGLEWVSGIKPGDSTTYYADSVKGRFTISRDNSKNTLYLQMNSLRAEDTAVYYCARAELLAFDVYTASDYWGQGTLVTVSS VL: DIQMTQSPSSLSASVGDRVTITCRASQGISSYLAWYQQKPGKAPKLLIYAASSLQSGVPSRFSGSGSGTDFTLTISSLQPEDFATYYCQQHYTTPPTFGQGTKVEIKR

-3.73
-3.65
-3.91
-3.50
-2.99
-3.67
-3.28
-3.69

// data source = patent US20260144882A1
